Catalogue of molecules with associated TGI
System: OVCAR-4 ovarian
Experiment: NCI tumour cell line growth inhibition, 48 h

molecule="CC(=O)OC1COC(N2C(=O)C(=O)c3c(C)cc(Cl)nc32)C(OC(C)=O)C1OC(C)=O (stereo unspecified)" quantity=TGI test_result="> 100 µM"
molecule=COC(=O)c1c(OC(C)=O)ccc2c1c1c(OC(C)=O)c3ccccc3c(OC(C)=O)c1n2Cc1cc(OC)cc(OC)c1 quantity=TGI test_result="> 100 µM"
molecule="COC(=O)C1=C(C)N2CCCOC2(C)C(C(=O)OC)C1c1cccc(Cl)c1 (stereo unspecified)" quantity=TGI test_result="> 100 µM"

INPUT: For the molecule Cc1oc2nc1C(=O)NCc1nc(cs1)C(=O)N[C@H](C(C)C)c1nc(cs1)C(=O)N[C@H]2C , give its reported TGI.
OUTPUT: > 100 µM

INPUT: For the molecule CCN(CC)CCCCCCCCNc1c2ccc(Cl)cc2nc2ccc(OC)cc12 , give its reported TGI.
OUTPUT: 2.71 µM

INPUT: For the molecule Nc1nc2nc3c(nc2c(=O)[nH]1)CN(c1ccc(C(=O)O)cc1)C3=O , give its reported TGI.
OUTPUT: > 100 µM
